- Test system: mPer2Luc MEF
- measurement-description: PER2::LUC luminescence relative to vehicle control (fold of vehicle); higher = higher PER2::LUC reporter signal
- recorded-conditions: time after treatment 30 h; 10 µM
The full ranking holds about 5,300 compounds; the median of “PER2::LUC luminescence relative to vehicle control” is about 0.96, and the highest 2% start at about 1.3. This excerpt belongs to a sample that is enriched for the highest values.
endpoint: PER2::LUC luminescence
Answer field: number only, no words.

## Input Give PER2::LUC luminescence for `O=c1ncc(F)c[nH]1`
## Output 0.911

## Input Please indicate PER2::LUC luminescence recorded for CC(N)(C(=O)O)c1ccc(C(=O)O)cc1 (racemic)
## Output 0.694

## Input Hello, please tell me recorded PER2::LUC luminescence for this one: `O=C(/C=C/c1ccccc1)c1ccc(O)cc1O`
## Output 1.43

## Input Hello, please tell me recorded PER2::LUC luminescence for this one: `C[C@@H]1O[C@@H](O[C@@H]2[C@@H](O)[C@H](O)[C@@H](CO)O[C@H]2c2c(O)cc(O)c3c(=O)cc(-c4ccc(O)cc4)oc23)[C@H](O)[C@H](O)[C@H]1O`
## Output 0.979

## Input Look up and state reported PER2::LUC luminescence for `c1ccc2c3c([nH]c2c1)[C@H]1[C@@H]2CC[C@@H]([C@@H]4CCCN[C@@H]42)N1CC3`
## Output 1

## Input Name the recorded PER2::LUC luminescence of the compound listed here: `CC1(C)CCC(C)(C)c2cc(C(=O)Nc3ccc(C(=O)O)cc3)ccc21`
## Output 1.67

## Input Answer with reported PER2::LUC luminescence of `O=C(O)c1ccc2nc(-c3cc(Cl)cc(Cl)c3)oc2c1`
## Output 1.43

## Input For the compound `O=C(O)/C=C/C=C/c1ccc2c(c1)OCO2` , give its reported PER2::LUC luminescence.
## Output 1.03

## Input For the compound `N=C(N)c1ccc(N)cc1` , give its reported PER2::LUC luminescence.
## Output 1.01

## Input Name the recorded PER2::LUC luminescence of the item `CCCCOc1ccc(C(=O)Nc2ccc(F)cc2F)cc1` in your answer.
## Output 1.34

## Input // Input: `CCN1C[C@H](C)n2c(c(O)c3c(=O)n(Cc4ccc(F)c(Cl)c4)nc(C(=O)NC)c32)C1=O` . Output its PER2::LUC luminescence only.
## Output 1.16

## Input Identify measured PER2::LUC luminescence associated with N#CCC(C1CCCC1)n1cc(-c2ncnc3[nH]ccc23)cn1 (centres undefined)
## Output 1.51

## Input Tell me measured PER2::LUC luminescence for `O=c1cc(-c2ccccc2)oc2cc(O)ccc12` please.
## Output 1.84

## Input # return recorded PER2::LUC luminescence for input `COc1cc2nccc(Oc3ccc(NC(=O)Nc4ccc(F)cc4F)c(F)c3)c2cc1OC`
## Output 0.689

## Input Quick one: give measured PER2::LUC luminescence for `O[C@H]1CCN2Cc3ccccc3N=C12`
## Output 0.932

## Input Quickly give me recorded PER2::LUC luminescence for `O=C(c1ccc2c(c1)OCO2)N1CCCCC1`
## Output 0.843

## Input Complete the entry with PER2::LUC luminescence for C[C@H]1COC2(CCN(c3nc(=O)c4cc(C(F)(F)F)cc([N+](=O)[O-])c4s3)CC2)O1 (racemic)
## Output 1.39

## Input Give PER2::LUC luminescence for the following compound: `O=c1c(O)c(-c2ccccc2)oc2cc(O)ccc12`
## Output 1.18

## Input // fetch PER2::LUC luminescence given entry `O=c1cc(-c2ccccc2F)[nH]c2cc3c(cc12)OCO3`
## Output 0.871

## Input Fill in PER2::LUC luminescence for record `COc1cc(O)c(C(=O)/C=C/c2ccccc2)c(OC)c1`
## Output 0.937

## Input Provide PER2::LUC luminescence value for the following compound: `O=C1Nc2nc(-c3c(O)cccc3OCC3CC3)cc([C@@H]3CCCNC3)c2CO1`
## Output 0.66

## Input In one line, give reported PER2::LUC luminescence of the entry `CO[C@H]1[C@H](OC(=O)c2ccc(C)[nH]2)[C@H](O)[C@@H](Oc2ccc3c(O)c(NC(=O)c4c[nH]c(C(=O)Nc5c(O)c6ccc(O[C@H]7OC(C)(C)[C@@H](OC)[C@H](OC(=O)c8ccc(C)[nH]8)[C@@H]7O)c(C)c6oc5=O)c4C)c(=O)oc3c2C)OC1(C)C` .
## Output 1.13

## Input Give the reported PER2::LUC luminescence for this compound. `O=C1c2ccccc2C(=O)C1c1ccc(Br)cc1`
## Output 0.974

## Input Item `N#CC[C@H](C1CCCC1)n1cc(-c2ncnc3[nH]ccc23)cn1` : provide PER2::LUC luminescence
## Output 1.13

## Input Output measured PER2::LUC luminescence for this item: `Cc1c2c(c(O)c3c(O)cccc13)C(=O)O[C@@H]2[C@@H]1[C@H](O)C(=O)C(C(N)=O)=C(O)[C@H]1N(C)C`
## Output 0.958

## Input Tell me its PER2::LUC luminescence given `CC[C@H]1OC(=O)C[C@@H](O)[C@H](C)[C@@H](O[C@@H]2O[C@H](C)[C@@H](O)[C@H](N(C)C)[C@H]2O)[C@@H](CCN2CCCCC2)C[C@@H](C)C(=O)/C=C/C(C)=C/[C@@H]1CN1CCCCC1` as the entry.
## Output 0.882

## Input Report PER2::LUC luminescence for C=CCCCCCCCCCCCC(O)CC(O)CO (centres undefined)
## Output 0.789

## Input Consider the compound `CC(C)(O)c1ccc2c(c1)ncn2-c1cccc(-c2ccccc2C#N)c1` and give its recorded PER2::LUC luminescence.
## Output 0.89

## Input Give reported PER2::LUC luminescence value for `O=C(Nc1ccc(S(=O)(=O)Nc2ccccc2Cl)c(Cl)c1)c1ccccn1`
## Output 1.06

## Input Indicate the recorded PER2::LUC luminescence value for this compound: `NC(N)=NCCC[C@H](NC(=O)[C@@H](N)Cc1ccc(O)cc1)C(=O)O`
## Output 0.909

## Input Quick one: give measured PER2::LUC luminescence for `CCCCN(CCCC)CCCOC(=O)c1ccc(N)cc1`
## Output 0.832

## Input Assign PER2::LUC luminescence to the following record: `O=C(O)c1ccccc1`
## Output 0.766

## Input Return the recorded PER2::LUC luminescence value; entry: COc1cc(Nc2nc3c(s2)CCCC3c2ccc(F)cc2)ccc1-n1cnc(C)c1 (centres undefined)
## Output 1.02

## Input Give recorded PER2::LUC luminescence. `O=C(/C=C/c1ccc(O)c(O)c1)c1ccc(O)cc1O`
## Output 1.13

## Input Supply recorded PER2::LUC luminescence for `CC1(C)CCC(C)(C)c2cc(NC(=O)c3ccc(C(=O)O)cc3)ccc21` here.
## Output 1.63

## Input Determine its reported PER2::LUC luminescence: `O=C(/C=C/c1ccc(O)cc1)c1ccc(O)cc1O`
## Output 1.41

## Input Supply measured PER2::LUC luminescence of `C[C@@](N)(C(=O)O)c1ccc(C(=O)O)cc1` in your reply.
## Output 0.938

## Input # return recorded PER2::LUC luminescence for entry `CC[C@H]1CN(c2nc(N)c(C(N)=O)nc2Cl)CCN1C1CCN(Cc2ccc(Cl)cc2)CC1`
## Output 1.01

## Input Return PER2::LUC luminescence for the following compound: `CC[C@H](C)[C@@H]([C@@H](CC(=O)N1CCC[C@H]1[C@H](OC)[C@@H](C)C(=O)N[C@@H](Cc1ccccc1)c1nccs1)OC)N(C)C(=O)[C@@H](NC(=O)[C@@H](NC)C(C)C)C(C)C`
## Output 0.385

###

Could you please report measured PER2::LUC luminescence for the items listed next?
- Test system: mPer2Luc MEF
- measurement-description: PER2::LUC luminescence relative to vehicle control (fold of vehicle); higher = higher PER2::LUC reporter signal
- recorded-conditions: time after treatment 30 h; 10 µM
In all, about 5,300 compounds were measured (“PER2::LUC luminescence relative to vehicle control”: median about 0.96, highest 2% from about 1.3 on). Shown is part of a subset that was picked to be rich in the highest values.
Kindly provide the number alone.

## Input Let me know recorded PER2::LUC luminescence for `O=C(CCc1ccccc1)N1CCC(O)(Cn2cnc3cc(Cl)ccc3c2=O)CC1` , thanks.
## Output 0.916

## Input Specify measured PER2::LUC luminescence for `C[C@H](CCC(=O)NCC(=O)NCCS(=O)(=O)O)[C@H]1CC[C@H]2[C@@H]3[C@H](O)C[C@@H]4C[C@H](O)CC[C@]4(C)[C@H]3C[C@H](O)[C@]12C` .
## Output 0.904

## Input Entry `COc1ccc2c(c1)C[C@H](C(=O)Nc1ccc(-c3cn[nH]c3)cc1OCCN(C)C)CO2` needs its PER2::LUC luminescence filled in; supply it.
## Output 0.452

## Input Check the records and state PER2::LUC luminescence for C=CC(C1=CC(=O)C(OC)=CC1=O)c1ccc(O)cc1 (centres undefined)
## Output 0.863

## Input Hello, please tell me recorded PER2::LUC luminescence for this one: `O=C(O)c1ccc2c(c1)nc(Nc1cccc(Cl)c1)c1ccncc12`
## Output 1.39

## Input Supply recorded PER2::LUC luminescence for `O=C(O)Cc1cccc(OCCCN(Cc2cccc(C(F)(F)F)c2Cl)CC(c2ccccc2)c2ccccc2)c1` here.
## Output 1.47

## Input Report PER2::LUC luminescence, nothing else, for this compound: `N[C@](CCCCB(O)O)(CCN1CCCCC1)C(=O)O`
## Output 1.08

## Input Report PER2::LUC luminescence for CC(CC(=O)O)C(N)C(=O)O (racemic)
## Output 0.922

## Input Retrieve PER2::LUC luminescence measured for `CC(C)CCC[C@@H](C)[C@H]1CC[C@H]2[C@@H]3C=CC4=CC(=O)CC[C@]4(C)[C@H]3CC[C@]12C` and print it.
## Output 0.927
